- SYSTEM: PXR (NR1I2) (Homo sapiens, UniProt O75469)
- EXPERIMENTAL_DETAILS: Activation of PXR in human DPX2 cells after 24 hrs by luciferase reporter gene assay relative to control
- Format: cell-based
- RUN_CONDITIONS: read-out: FC
PARAMETER: fold induction at 24 h
// return just the number, without any unit appended

Field request: fold induction at 24 h | item: CO[C@H]1/C=C/O[C@@]2(C)Oc3c(C)c(O)c4c(=O)c(c5oc6cccc(OCCCCN7CCN(C(=O)Cn8ccnc8)CC7)c6nc-5c4c3C2=O)NC(=O)/C(C)=C\C=C\[C@H](C)[C@H](O)[C@@H](C)[C@@H](O)[C@@H](C)[C@H](OC(C)=O)[C@@H]1C
5.9

====

- EXPERIMENTAL_DETAILS: Tmax in BALB/c mouse at 10 mg/kg, po administered as single dose
- Format: ADME, organism-based
- Parameters: dose 10 mg/kg, route oral
- RUN_CONDITIONS: in vivo
PARAMETER: Tmax (h)
Report the value in h with no unit label.

Field request: Tmax | item: CCN(CC)CCOc1cccc2oc3c4c(=O)c5c(O)c(C)c6c(c5c-3nc12)C(=O)[C@@](C)(O/C=C/[C@H](OC)[C@@H](C)[C@@H](OC(C)=O)[C@H](C)[C@H](O)[C@H](C)[C@@H](O)[C@@H](C)/C=C/C=C(/C)C(=O)N4)O6
1

====

- SYSTEM: PXR (NR1I2) (Homo sapiens, UniProt O75469)
- Sequence (O75469 whole entry): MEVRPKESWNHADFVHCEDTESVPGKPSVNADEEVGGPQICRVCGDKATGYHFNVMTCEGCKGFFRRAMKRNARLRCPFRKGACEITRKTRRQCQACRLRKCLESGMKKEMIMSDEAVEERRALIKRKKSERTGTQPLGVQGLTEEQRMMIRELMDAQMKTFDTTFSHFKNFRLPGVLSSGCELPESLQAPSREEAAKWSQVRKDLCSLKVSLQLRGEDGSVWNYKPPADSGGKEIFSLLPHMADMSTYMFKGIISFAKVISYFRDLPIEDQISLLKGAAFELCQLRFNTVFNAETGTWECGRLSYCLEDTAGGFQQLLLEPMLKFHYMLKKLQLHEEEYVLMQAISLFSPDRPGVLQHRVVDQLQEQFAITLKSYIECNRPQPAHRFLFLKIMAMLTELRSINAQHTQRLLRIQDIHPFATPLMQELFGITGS
- EXPERIMENTAL_DETAILS: Activation of PXR in human DPX2 cells at 100 uM after 24 hrs by luciferase reporter gene assay relative to control
- Assay type: cell-based
- RUN_CONDITIONS: read-out: FC
PARAMETER: fold induction at 24 h, 100 µM
// return just the number, without any unit appended

Give PXR (NR1I2) (Homo sapiens, UniProt O75469) fold induction at 24 h, 100 µM for CO[C@H]1/C=C/O[C@@]2(C)Oc3c(C)c(O)c4c(=O)c(c5oc6cc(N7CCN(CC(C)C)CC7)cc(O)c6nc-5c4c3C2=O)NC(=O)/C(C)=C\C=C\[C@H](C)[C@H](O)[C@@H](C)[C@@H](O)[C@@H](C)[C@H](OC(C)=O)[C@@H]1C [RIFALAZIL]
2

====

- EXPERIMENTAL_DETAILS: Half life in human
- Assay type: ADME, organism-based
- RUN_CONDITIONS: in vivo
PARAMETER: half-life (h)
Report the value in h with no unit label.

Field request: half-life | item: CO[C@H]1/C=C/O[C@@]2(C)Oc3c(C)c(O)c4c(=O)c(c5oc6cc(N7CCN(CC(C)C)CC7)cc(O)c6nc-5c4c3C2=O)NC(=O)/C(C)=C\C=C\[C@H](C)[C@H](O)[C@@H](C)[C@@H](O)[C@@H](C)[C@H](OC(C)=O)[C@@H]1C
60

====

- EXPERIMENTAL_DETAILS: Tmax in BALB/c mouse at 10 mg/kg, po administered qd for 5 days
- Format: ADME, organism-based
- Set-up: dose 10 mg/kg, route oral
- RUN_CONDITIONS: in vivo
PARAMETER: Tmax (h)
Report the value in h with no unit label.

Field request: Tmax | item: CCN(CC)CCOc1cccc2oc3c4c(=O)c5c(O)c(C)c6c(c5c-3nc12)C(=O)[C@@](C)(O/C=C/[C@H](OC)[C@@H](C)[C@@H](OC(C)=O)[C@H](C)[C@H](O)[C@H](C)[C@@H](O)[C@@H](C)/C=C/C=C(/C)C(=O)N4)O6
2

====

Listed next: entries and their corresponding selectivity ratio.
- EXPERIMENTAL_DETAILS: Selectivity index, ratio of cytotoxicity against human DPX2 cells to IC50 for Mycobacterium wild type RNA polymerase
- Type: toxicity, cell-based
- RUN_CONDITIONS: read-out: Selectivity Index

CCN(CC)CCOc1cccc2oc3c4c(=O)c5c(O)c(C)c6c(c5c-3nc12)C(=O)[C@@](C)(O/C=C/[C@H](OC)[C@@H](C)[C@@H](OC(C)=O)[C@H](C)[C@H](O)[C@H](C)[C@@H](O)[C@@H](C)/C=C/C=C(/C)C(=O)N4)O6 ... 1000

Let's switch to this molecule now.
Field request: selectivity ratio | item: CO[C@H]1/C=C/O[C@@]2(C)Oc3c(C)c(O)c4c(=O)c(c5oc6cccc(OCCCCN7CCN(CCn8ccnc8)CC7)c6nc-5c4c3C2=O)NC(=O)/C(C)=C\C=C\[C@H](C)[C@H](O)[C@@H](C)[C@@H](O)[C@@H](C)[C@H](OC(C)=O)[C@@H]1C
1000

====

- EXPERIMENTAL_DETAILS: Inhibition of Mycobacterium tuberculosis wild type RNA polymerase by rolling circle transcription assay in the absence of sigmaA factor
pIC50: −log10 of the molar value.
PARAMETER: pIC50

Please review the entries below; each comes with its answer.
CCN(CC)CCOc1cccc2oc3c4c(=O)c5c(O)c(C)c6c(c5c-3nc12)C(=O)[C@@](C)(O/C=C/[C@H](OC)[C@@H](C)[C@@H](OC(C)=O)[C@H](C)[C@H](O)[C@H](C)[C@@H](O)[C@@H](C)/C=C/C=C(/C)C(=O)N4)O6 ... > 8.00
CO[C@H]1/C=C/O[C@@]2(C)Oc3c(C)c(O)c4c(=O)c(c5oc6cccc(OCCCCN7CCN(CCn8ccnc8)CC7)c6nc-5c4c3C2=O)NC(=O)/C(C)=C\C=C\[C@H](C)[C@H](O)[C@@H](C)[C@@H](O)[C@@H](C)[C@H](OC(C)=O)[C@@H]1C ... > 8.00
CO[C@H]1/C=C/O[C@@]2(C)Oc3c(C)c(O)c4c(=O)c(c5oc6cc(N7CCN(CC(C)C)CC7)cc(O)c6nc-5c4c3C2=O)NC(=O)/C(C)=C\C=C\[C@H](C)[C@H](O)[C@@H](C)[C@@H](O)[C@@H](C)[C@H](OC(C)=O)[C@@H]1C [RIFALAZIL] ... 7.94

Let's switch to this compound now.
Field request: pIC50 | item: CO[C@H]1/C=C/O[C@@]2(C)Oc3c(C)c(O)c4c(=O)c(c5oc6cccc(OCCCCN7CCN(C(=O)Cn8ccnc8)CC7)c6nc-5c4c3C2=O)NC(=O)/C(C)=C\C=C\[C@H](C)[C@H](O)[C@@H](C)[C@@H](O)[C@@H](C)[C@H](OC(C)=O)[C@@H]1C
> 8.00

====

- EXPERIMENTAL_DETAILS: Half life in mouse microsomes
- Type: ADME, Microsome
Listed next: entries and their corresponding half-life.
Report the value in h with no unit label.

CCN(CC)CCOc1cccc2oc3c4c(=O)c5c(O)c(C)c6c(c5c-3nc12)C(=O)[C@@](C)(O/C=C/[C@H](OC)[C@@H](C)[C@@H](OC(C)=O)[C@H](C)[C@H](O)[C@H](C)[C@@H](O)[C@@H](C)/C=C/C=C(/C)C(=O)N4)O6 ... 2.35

Field request: half-life | item: CO[C@H]1/C=C/O[C@@]2(C)Oc3c(C)c(O)c4c(=O)c(c5oc6cc(N7CCN(CC(C)C)CC7)cc(O)c6nc-5c4c3C2=O)NC(=O)/C(C)=C\C=C\[C@H](C)[C@H](O)[C@@H](C)[C@@H](O)[C@@H](C)[C@H](OC(C)=O)[C@@H]1C [RIFALAZIL]
0.883

====

- SYSTEM: PXR (NR1I2) (Homo sapiens, UniProt O75469)
- Sequence (O75469 whole entry): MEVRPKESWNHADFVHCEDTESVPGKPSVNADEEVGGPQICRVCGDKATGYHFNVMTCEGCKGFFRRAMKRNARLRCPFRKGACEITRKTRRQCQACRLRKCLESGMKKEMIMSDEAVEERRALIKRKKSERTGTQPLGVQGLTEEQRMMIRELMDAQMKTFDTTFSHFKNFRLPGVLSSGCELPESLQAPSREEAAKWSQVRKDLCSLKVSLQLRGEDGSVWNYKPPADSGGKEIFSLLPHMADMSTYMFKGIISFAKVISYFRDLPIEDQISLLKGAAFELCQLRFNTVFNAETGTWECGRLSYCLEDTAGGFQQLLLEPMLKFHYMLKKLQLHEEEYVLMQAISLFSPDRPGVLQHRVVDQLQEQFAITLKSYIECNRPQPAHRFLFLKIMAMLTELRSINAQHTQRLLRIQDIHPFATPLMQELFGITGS
- EXPERIMENTAL_DETAILS: Activation of PXR in human DPX2 cells at 6.25 uM after 24 hrs by luciferase reporter gene assay relative to control
- Assay type: cell-based
- RUN_CONDITIONS: read-out: FC
PARAMETER: fold induction at 24 h, 6.25 µM

CCN(CC)CCOc1cccc2oc3c4c(=O)c5c(O)c(C)c6c(c5c-3nc12)C(=O)[C@@](C)(O/C=C/[C@H](OC)[C@@H](C)[C@@H](OC(C)=O)[C@H](C)[C@H](O)[C@H](C)[C@@H](O)[C@@H](C)/C=C/C=C(/C)C(=O)N4)O6 ... 3

Field request: fold induction at 24 h, 6.25 µM | item: CO[C@H]1/C=C/O[C@@]2(C)Oc3c(C)c(O)c4c(=O)c(c5oc6cccc(OCCCCN7CCN(CCn8ccnc8)CC7)c6nc-5c4c3C2=O)NC(=O)/C(C)=C\C=C\[C@H](C)[C@H](O)[C@@H](C)[C@@H](O)[C@@H](C)[C@H](OC(C)=O)[C@@H]1C
3

Ref: ChEMBL document CHEMBL2046330
